Source of measurements: patent US12319664B2

# System: POLCO
# Experimental protocol: Post-emergence herbicidal action against POLCO
# Assay type: in vivo, Polygonum convolvulus
# Test settings: application rate 80 g/ha, rated visually about 3 weeks after treatment
For each of the molecules below, state its Herbicidal action against [%] POLCO.
One number for each entry, in %.

Some molecules with known Herbicidal action against [%] POLCO results, for comparison:
>>> observed_value("O=C(OCC(F)(F)F)C1C=CC(NC(=O)C2(C(F)(F)F)CC(c3cc(F)cc(F)c3)=NO2)C1 (mixture of isomers) [Example I-068]")
90
>>> observed_value("COC(=O)C1C=CC(NC(=O)C2(C)CC(c3cccc(C#N)c3)=NO2)C1 (mixture of isomers) [Example I-080]")
90
>>> observed_value("COC(=O)C(C)(C)NC(=O)C1C=CC(NC(=O)C2(C)CC(c3cc(F)cc(F)c3)=NO2)C1 (mixture of isomers) [II-09]")
90
>>> observed_value("COCCOC(=O)[C@@H]1C=C[C@H](NC(=O)[C@@]2(C(F)(F)F)CC(c3cc(F)cc(F)c3)=NO2)C1 [Example I-076]")
90
>>> observed_value("Cc1cc(Cl)cc(C2=NOC(C(=O)N[C@H]3C=C[C@@H](C(=O)OCCCl)C3)(C(F)(F)F)C2)c1 (stereo partly shown) [Example I-028]")
100
>>> observed_value("Cc1cc(Cl)cc(C2=NOC(C(=O)N[C@H]3C=C[C@@H](C(=O)OCC(F)(F)F)C3)(C(F)(F)F)C2)c1 (stereo partly shown) [Example I-029]")
80

Consider the additional molecule presented here.
GET /values?readout=Herbicidal action against [%] POLCO&item= CCOC(=O)C1C=CC(NC(=O)C2(C#N)CC(c3cc(F)cc(F)c3)=NO2)C1 (stereo not shown) [Example I-104] 90
